- MEASUREMENT_NOTES: Miscibility of diamines and triamines with water in presence and absence of CO2
- Type: physicochemical
- CONDITION_DESCRIPTION: 5:1 w/w water and liquid additive, CO2 90 min
VALUE_TYPE: Miscibility with water, After addition of CO2

1. CCCN(CC)CCCCN(CC)CCC
miscible
2. CN(C)CC1CC(CN(C)C)CC(CN(C)C)C1 (centres unmarked)
miscible
3. CN(C)Cc1cc(CN(C)C)cc(CN(C)C)c1
miscible
4. CCN(CC)CCCCN(CC)CC
miscible
